The values you see were collected from PubChem BioAssay AID686978.

- method_notes: qHTS for Inhibitors of human tyrosyl-DNA phosphodiesterase 1 (TDP1): qHTS in cells in absence of CPT; note: nearly all actives have a fitted effect of over 55% in size
- run_conditions: DT40 Tdp1-/- hTDP1 cells, no CPT, ATP luminescence, 48 h
The campaign covered roughly 420,000 compounds. About 64,000 (15%) were called active. Another 27% or so got no clear call; they are omitted. Calls come from the whole dose curve; as a rule, active = well fitted inhibition curve with a large enough effect; inconclusive = small, poorly fitted or top-dose-only effect; inactive = flat fitted curve, though single readings scatter. Not all results are given here.
Choose one outcome from this list and give only that: 1 = active, -1 = inactive

# example entries with known answers
Q: Give the logged outcome of this assay for the following molecule: CCOC(=O)N1CCC(NC(=O)CCc2ccccc2)CC1
Result: -1

Q: Give the logged outcome of this assay for the following molecule: COC(=O)CNC(=O)c1cc(-c2ccncc2)nc2ccccc12
Result: -1

Q: Give the logged outcome of this assay for the following molecule: COc1ccccc1CNc1ncnc2ccc(-c3ccc4c(c3)OCO4)cc12
Result: -1

Others:
Q: Give the logged outcome of this assay for the following molecule: COCCNc1ncnc2ccc(-c3ccccc3CN(C)C)cc12
Result: -1

Q: Give the logged outcome of this assay for the following molecule: Cc1cc(C)n(C(=O)c2ccc(C)c(S(=O)(=O)N3CCOCC3)c2)n1
Result: -1

Q: Give the logged outcome of this assay for the following molecule: CC1CCCC(NC(=O)c2cc(-c3ccncc3)nc3ccccc23)C1C (stereo unspecified)
Result: 1

Q: Give the logged outcome of this assay for the following molecule: O=C(O)c1n[nH]nc1-c1ccccc1
Result: -1

Q: Give the logged outcome of this assay for the following molecule: CCOc1cccc(C(=O)Nc2nnc(-c3cccs3)s2)c1
Result: -1

Q: Give the logged outcome of this assay for the following molecule: COc1ccccc1CNc1ncnc2ccc(-c3c(C)noc3C)cc12
Result: 1

Q: Give the logged outcome of this assay for the following molecule: Cc1ccc(-c2cc(C(=O)NC3CCN(Cc4ccccc4)CC3)c3ccccc3n2)cc1
Result: 1

Q: Give the logged outcome of this assay for the following molecule: O=C(NC1(C(F)(F)F)N=C2SCCN2C1=O)c1ccco1 (stereo unspecified)
Result: -1
